target: Glutamate receptor ionotropic, kainate 1 (Rattus norvegicus, UniProt P22756); assay: Antagonism on GLUK5 containing kainate induced depolarization of isolated neonatal rat dorsal root C-fibers
Sequence (P22756 whole entry): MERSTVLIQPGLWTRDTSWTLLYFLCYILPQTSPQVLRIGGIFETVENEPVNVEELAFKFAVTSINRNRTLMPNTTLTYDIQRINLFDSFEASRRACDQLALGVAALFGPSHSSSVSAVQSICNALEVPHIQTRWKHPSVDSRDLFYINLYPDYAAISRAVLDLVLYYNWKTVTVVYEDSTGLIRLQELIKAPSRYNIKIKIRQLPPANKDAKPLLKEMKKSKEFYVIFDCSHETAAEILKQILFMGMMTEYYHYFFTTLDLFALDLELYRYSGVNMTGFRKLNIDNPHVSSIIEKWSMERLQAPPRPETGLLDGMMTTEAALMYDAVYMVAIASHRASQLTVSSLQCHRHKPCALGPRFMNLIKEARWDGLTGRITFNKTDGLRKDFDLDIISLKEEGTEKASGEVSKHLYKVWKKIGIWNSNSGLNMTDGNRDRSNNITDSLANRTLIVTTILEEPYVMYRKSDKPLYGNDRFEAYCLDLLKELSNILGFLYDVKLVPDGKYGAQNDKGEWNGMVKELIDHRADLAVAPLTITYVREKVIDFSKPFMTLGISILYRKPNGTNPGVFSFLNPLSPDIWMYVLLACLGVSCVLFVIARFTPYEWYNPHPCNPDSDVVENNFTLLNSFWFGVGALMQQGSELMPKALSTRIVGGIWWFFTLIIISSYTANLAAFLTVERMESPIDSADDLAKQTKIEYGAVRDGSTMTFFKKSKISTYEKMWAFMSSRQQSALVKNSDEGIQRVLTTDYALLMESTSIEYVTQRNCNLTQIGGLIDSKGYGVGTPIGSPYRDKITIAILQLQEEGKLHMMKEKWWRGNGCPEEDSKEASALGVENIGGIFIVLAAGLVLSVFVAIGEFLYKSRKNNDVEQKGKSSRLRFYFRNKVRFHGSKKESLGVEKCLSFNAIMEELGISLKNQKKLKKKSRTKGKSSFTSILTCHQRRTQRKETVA
This section presents molecules with their documented pKd values.
The scale used: pKd is minus the common logarithm of the concentration in molar units.

Consider the worked cases shown below.
For the molecule NC(Cn1ccc(=O)n(Cc2ccccc2C(=O)O)c1=O)C(=O)O (racemic) , what pKd is on record? 5.96

Any idea what its pKd is? The molecule is N[C@@H](Cn1ccc(=O)n(Cc2ccccc2C(=O)O)c1=O)C(=O)O 6.40

Data request, read-out pKd, for N#Cc1cc2c(cc1[N+](=O)[O-])=NC(=O)C(=O)N=2 5.78

Look up pKd for this molecule: N[C@@H](Cn1cc(I)c(=O)n(Cc2ccccc2C(=O)O)c1=O)C(=O)O 6.68

Give the measured pKd of N[C@@H](Cn1ccc(=O)n(CCCC(=O)O)c1=O)C(=O)O . 4.22

Look up pKd: N[C@@H](Cn1ccc(=O)n(Cc2ccc(C(=O)O)cc2)c1=O)C(=O)O 5.03

Endpoint output: pKd of N[C@@H](Cn1cc(I)c(=O)n(CCC(=O)O)c1=O)C(=O)O . Value? 5.09

// lookup pKd for N[C@@H](Cn1ccc(=O)n(CCC(=O)O)c1=O)C(=O)O 4.14

Now, please, on to the next molecule.
Record request: pKd value, item N[C@@H](Cn1ccc(=O)n(Cc2cccc(C(=O)O)c2)c1=O)C(=O)O 4.31

* * *

target: Glutamate receptor ionotropic, AMPA (Rattus norvegicus, UniProt P19490+P19491+P19492+P19493); test: Displacement of [3H](S)-5-fluorowillardiine from AMPA receptor in rat brain membrane
Below, each entry is listed with its recorded Ki.
Value expressed in µM; do not type the unit.

So what's the measured Ki for this one? N[C@H](Cn1ccc(=O)n(CCCC(=O)O)c1=O)C(=O)O 149

What Ki value was documented for this compound, N[C@@H](Cn1cc(I)c(=O)n(CCC(=O)O)c1=O)C(=O)O ? 5

Quick one: Ki of N[C@@H](Cn1ccc(=O)n(CC(=O)O)c1=O)C(=O)O ? 195

Now, please, on to the next compound.
Sample N[C@@H](Cn1ccc(=O)n(CCCC(=O)O)c1=O)C(=O)O — what was its Ki? 17.8

* * *

target: Glutamate receptor ionotropic, AMPA (Rattus norvegicus, UniProt P19490+P19491+P19492+P19493); assay: Antagonist activity on AMPA receptor expressed on rat motoneurons by its ability to reduce the fast component dorsal root evoked ventral root potential (fDR-VRP)
measured.quantity: IC50 (µM)
Response body: numeric value in µM, unit text excluded.

Look up IC50: N[C@@H](Cn1ccc(=O)n(Cc2ccccc2C(=O)O)c1=O)C(=O)O 106

Report IC50 for N[C@@H](Cn1cc(I)c(=O)n(Cc2ccccc2C(=O)O)c1=O)C(=O)O please. 74.1

IC50 lookup needed for NC(Cn1ccc(=O)n(Cc2ccccc2C(=O)O)c1=O)C(=O)O (racemic) , thanks. 97.6

Turning now to a further record.
Please report the recorded IC50 for N[C@@H](Cn1cc(I)c(=O)n(CCC(=O)O)c1=O)C(=O)O . 13.7

* * *

target: Glutamate receptor ionotropic, AMPA (Rattus norvegicus, UniProt P19490+P19491+P19492+P19493); experiment: Antagonist activity on AMPA receptor expressed on rat motoneurons by its ability to reduce the fast component dorsal root evoked ventral root potential (fDR-VRP)
The compounds listed here are annotated with their IC50.
Write the value in µM as a bare number.

// solved cases for IC50 follow
Give its IC50 value. Item: N[C@@H](Cn1ccc(=O)n(CC(=O)O)c1=O)C(=O)O 287

Consider the compound shown here: N[C@@H](Cn1ccc(=O)n(CCCC(=O)O)c1=O)C(=O)O What is its recorded IC50? 136

Let us examine a further case.
For N[C@@H](Cn1cc([N+](=O)[O-])c(=O)n(CCC(=O)O)c1=O)C(=O)O , what is its reported IC50? 79.9
